target: PDE4Bcat (Homo sapiens)
Construct: catalytic domain (indicated as “cat,” hereinafter), PDE4Bcat
Sequence (Q07343 330-659 limits assumed): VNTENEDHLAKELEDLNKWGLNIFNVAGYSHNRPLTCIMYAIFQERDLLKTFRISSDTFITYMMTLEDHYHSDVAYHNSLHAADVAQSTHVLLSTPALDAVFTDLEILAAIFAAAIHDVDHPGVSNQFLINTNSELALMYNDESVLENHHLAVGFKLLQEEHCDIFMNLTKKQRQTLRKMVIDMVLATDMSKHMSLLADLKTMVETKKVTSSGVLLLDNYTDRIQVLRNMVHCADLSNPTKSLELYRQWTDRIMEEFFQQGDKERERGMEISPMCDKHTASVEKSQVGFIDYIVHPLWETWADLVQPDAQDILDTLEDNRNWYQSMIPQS
protocol_description: Inhibition of phosphodiesterase activity, [3H]-cAMP hydrolysis, recombinant PDE4Bcat
condition_summary: cAMP 2 μmol/L, read-out: IC50(μmol/L) PDE4
pIC50: −log10 of the molar value.
measurement_type: pIC50

COc1ccc(C2=NNC(=O)CC2C)c2cc(C)nn12 (stereo not drawn): 6.00 to 7.00
CCc1cc2c(C3=NNC(=O)CC3C)ccc(-c3ccccc3)n2n1 (stereo not drawn): 5.00 to 6.00
CCc1cc2c(C3=NNC(=O)CC3C)ccc(N3CCOCC3)n2n1 (stereo not drawn): < 5.00
CCc1cc2c(C3=NNC(=O)CC3C)ccc(N(C)C)n2n1 (stereo not drawn): 6.00 to 7.00
CCc1cc2c(C3=NNC(=O)CC3C)ccc(NCCO)n2n1 (stereo not drawn): 5.00 to 6.00
CCc1cc2c(C3=NNC(=O)CC3C)ccc(OC)n2n1 (single isomer, unassigned; (-)) [Example 316]: > 6.00
COc1ccc(C2=NNC(=O)CC2C)c2cc(C(C)C)nn12 (stereo not drawn): 6.00 to 7.00
COc1ccc(-c2ccc(=O)[nH]n2)c2cc(C(F)(F)F)nn12: 6.00 to 7.00
COc1ccc(C2=NNC(=O)CC2C)c2ccnn12 (stereo not drawn): 5.00 to 6.00
